src = ChEMBL document CHEMBL3243968

- assay_details: 1-Octanol-water partition coefficient, log P of the compound by UV spectrophotometer
- Format: physicochemical
metric_name: logP

[[record]]
compound = "CCOC(COc1cc(C)c(C)cc1Cl)(COc1cc(C)c(C)cc1Cl)OCC"
metric_name = "logP"
val = 2.69

[[record]]
compound = "Cc1ccc(OCC2CO2)cc1 (centres undefined)"
metric_name = "logP"
val = 2.69

